Cited source: ChEMBL document CHEMBL3860108

Molecular target: Serine/threonine-protein kinase TNNI3K (Homo sapiens)
Sequence (Q59H18 whole entry): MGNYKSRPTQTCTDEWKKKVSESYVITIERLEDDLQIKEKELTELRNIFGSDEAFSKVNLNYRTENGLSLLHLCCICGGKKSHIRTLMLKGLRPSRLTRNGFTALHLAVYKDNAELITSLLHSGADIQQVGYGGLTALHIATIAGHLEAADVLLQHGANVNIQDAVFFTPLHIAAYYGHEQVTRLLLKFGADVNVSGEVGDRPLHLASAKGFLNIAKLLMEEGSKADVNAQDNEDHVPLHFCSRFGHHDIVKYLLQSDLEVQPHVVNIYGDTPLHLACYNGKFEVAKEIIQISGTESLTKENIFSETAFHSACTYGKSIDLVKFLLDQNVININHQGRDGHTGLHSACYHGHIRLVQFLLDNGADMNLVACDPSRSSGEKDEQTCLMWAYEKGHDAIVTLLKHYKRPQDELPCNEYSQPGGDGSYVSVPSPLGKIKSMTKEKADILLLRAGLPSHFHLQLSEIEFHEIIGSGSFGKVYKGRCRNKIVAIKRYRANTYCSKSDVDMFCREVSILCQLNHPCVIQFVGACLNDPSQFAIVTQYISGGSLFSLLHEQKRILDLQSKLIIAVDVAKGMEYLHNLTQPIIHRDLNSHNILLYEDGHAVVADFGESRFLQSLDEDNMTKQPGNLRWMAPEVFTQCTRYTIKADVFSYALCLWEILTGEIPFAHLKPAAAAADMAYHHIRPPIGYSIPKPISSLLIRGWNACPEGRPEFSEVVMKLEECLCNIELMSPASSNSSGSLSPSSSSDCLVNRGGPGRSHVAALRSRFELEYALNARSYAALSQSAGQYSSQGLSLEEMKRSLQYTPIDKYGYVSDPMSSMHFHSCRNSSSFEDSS
Measured quantity: IC50

In [3]: df
Out[3]:
                                 mol_smiles  test_value
0  CNS(=O)(=O)c1ccc(N2CCC(F)(F)C2)c(Nc2ncnc3[nH]ccc23)c1      130 nM
1  CNS(=O)(=O)c1ccc(F)c(Nc2cc(Nc3ccc(Cl)cc3)ncn2)c1      200 nM
2  CNS(=O)(=O)c1ccc(O)c(Nc2ncnc3[nH]ccc23)c1       40 nM
